List of Percent Effect values.
Biological target: Ubiquitin-activating enzyme e1, putative (Leishmania donovani (strain BPK282A1)) (UniProt E9BSI1)
Sequence (E9BSI1 as listed by the source): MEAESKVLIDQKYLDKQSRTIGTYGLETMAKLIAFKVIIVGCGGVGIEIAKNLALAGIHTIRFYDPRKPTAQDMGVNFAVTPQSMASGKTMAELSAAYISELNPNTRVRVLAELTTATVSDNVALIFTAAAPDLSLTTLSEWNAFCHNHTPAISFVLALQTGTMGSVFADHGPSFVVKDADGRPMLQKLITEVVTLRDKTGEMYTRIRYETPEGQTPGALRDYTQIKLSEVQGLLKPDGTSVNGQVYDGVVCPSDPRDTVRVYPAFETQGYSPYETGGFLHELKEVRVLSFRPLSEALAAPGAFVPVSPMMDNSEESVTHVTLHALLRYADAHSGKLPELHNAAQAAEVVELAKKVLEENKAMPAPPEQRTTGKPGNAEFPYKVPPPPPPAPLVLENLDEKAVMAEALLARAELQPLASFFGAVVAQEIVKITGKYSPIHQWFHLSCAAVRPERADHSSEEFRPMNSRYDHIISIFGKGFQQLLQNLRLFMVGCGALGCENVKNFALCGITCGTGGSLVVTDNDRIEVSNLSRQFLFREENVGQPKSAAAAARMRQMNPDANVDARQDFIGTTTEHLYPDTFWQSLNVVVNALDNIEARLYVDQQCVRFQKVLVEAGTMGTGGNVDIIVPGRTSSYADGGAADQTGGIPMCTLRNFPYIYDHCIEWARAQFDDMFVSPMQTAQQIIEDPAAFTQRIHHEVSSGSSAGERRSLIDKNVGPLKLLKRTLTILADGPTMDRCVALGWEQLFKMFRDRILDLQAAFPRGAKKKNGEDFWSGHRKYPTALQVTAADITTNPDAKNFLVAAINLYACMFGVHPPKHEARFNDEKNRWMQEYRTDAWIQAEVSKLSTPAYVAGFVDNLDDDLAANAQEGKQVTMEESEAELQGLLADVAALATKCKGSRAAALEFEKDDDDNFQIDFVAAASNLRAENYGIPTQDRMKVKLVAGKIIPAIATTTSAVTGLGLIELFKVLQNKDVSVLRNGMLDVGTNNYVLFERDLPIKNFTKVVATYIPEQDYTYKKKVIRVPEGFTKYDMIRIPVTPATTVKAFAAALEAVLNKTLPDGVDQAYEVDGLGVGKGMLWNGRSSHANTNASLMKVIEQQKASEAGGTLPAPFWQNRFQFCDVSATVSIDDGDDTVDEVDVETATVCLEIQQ
Experiment: Leishmania donovani Ubiquitin Activating Enzyme (LdE1)
Type: functional
Design: scale not given: direction of the effect not stated beside the values
Settings: 30 µM
Potency and affinity values are given separately.
Answer in %, number only, no unit symbol.

> print(dat)
                                   compound    test.readout  experimental.result
1  Cc1ccc(CC(=O)N2CCOC(c3nc(C)n[nH]3)C2)cn1 (stereo unspecified)  Percent Effect                 20.8
2  CN(C)C(=O)[C@H]1C[C@@H]2CN(S(=O)(=O)Cc3ccccc3)C[C@H]1O2  Percent Effect                 13.3

input: Which Percent Effect value belongs to c1cnn(CC2CN(c3ncnc4ccsc34)CCO2)c1 (stereo unspecified) ?
output: 2.7

input: Which Percent Effect value belongs to CCn1cnnc1CNC(=O)NC(C)C(C)C (stereo unspecified) ?
output: 13

input: Which Percent Effect value belongs to CCN(CC)S(=O)(=O)N1CCCC(c2ccc(C(=O)O)cc2)C1 (stereo unspecified) ?
output: -2.7

input: Which Percent Effect value belongs to COCCN(C)C[C@@H]1CN(C(=O)c2cccc(C(F)(F)F)c2)C[C@@H]1CO ?
output: 2.7

input: Which Percent Effect value belongs to Cc1noc(C(C)N2CCN(CCCN3CCCC3=O)CC2)n1 (stereo unspecified) ?
output: 21.6

input: Which Percent Effect value belongs to COc1ccc(CN2CC[C@H](NC(C)=O)[C@@H](O)CC2)c(OC)c1 ?
output: 4.05

input: Which Percent Effect value belongs to O=C(Cn1ccc2c(Cl)cccc21)N[C@@H](C(=O)O)c1ccccc1 ?
output: 4

input: Which Percent Effect value belongs to Cc1n[nH]cc1CNc1ccc2c(c1)CN(C(=O)OC(C)(C)C)CC2 ?
output: 5.2

input: Which Percent Effect value belongs to O=C(CC1CN(Cc2ccccc2)CCO1)Nc1ccccc1F (stereo unspecified) ?
output: 21.6
